Target: T1, human BMPR1B overexpressed on the surface of HEK293T cells (N-terminal Asp-Lys epitope tag, … (human, UniProt O00238 14-502))
T1 construct: also called HEK293T cells overexpressing hBMPR1B; BMPR1B-expressing HEK293T cells
T1 sequence (O00238 14-502): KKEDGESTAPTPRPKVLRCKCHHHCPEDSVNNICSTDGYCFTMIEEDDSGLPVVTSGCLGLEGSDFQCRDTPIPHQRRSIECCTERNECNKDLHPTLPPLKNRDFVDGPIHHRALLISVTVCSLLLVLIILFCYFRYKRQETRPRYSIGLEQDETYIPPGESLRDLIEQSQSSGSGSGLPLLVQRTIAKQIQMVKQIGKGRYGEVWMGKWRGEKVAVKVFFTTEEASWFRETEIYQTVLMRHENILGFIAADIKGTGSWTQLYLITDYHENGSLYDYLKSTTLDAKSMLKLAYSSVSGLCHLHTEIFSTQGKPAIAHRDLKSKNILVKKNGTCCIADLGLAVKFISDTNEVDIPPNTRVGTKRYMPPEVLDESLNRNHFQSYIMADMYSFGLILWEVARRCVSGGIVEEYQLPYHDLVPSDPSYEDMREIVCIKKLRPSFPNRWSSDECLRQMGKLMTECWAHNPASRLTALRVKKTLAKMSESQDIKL
Experiment: flow cytometry

>  <binder>
SC91.172 (antibody, V domains shown) VH: QVQLQQPGADLVKPGTSVKLSCKASGYTFTSYWMQWVKQRPGQGLEWIGEIDPSDTYTMYNQKFKGKATLTVDTSSSTAYMQLSSLTSEDSAVYYCARFGYYVDYWGQGTTLTVSS VL: DVVMTQTPLSLPVSLGDQASISCRSSQSLVHSTGNTYLHWYLQKAGQSPKLLIYKVSNRFSGVPDRFSGSGSGTDFTLKISRVEAEDLGVYFCSQSTHVPFTFGSGTKLEIK

>  <gMFI>
24000

$$$$
>  <binder>
SC91.160 (antibody, V domains shown) VH: QIQLVQSGPELKKPGETVKISCKASGYTFTTYGMNWVKQAPGKGLKWMGWINTYSGVPSSADDFKGRFAFSLETSASTAYLLINNLKNEDTATYFCARSELRNWYFDVWGTGTTVTVSS VL: SFVMTQTPKFLLVSAGDRVTITCKASQNMGHDVAWYQQKPGQSPKLLIYSASNRYTGVPDRFTGSGYGTDFTFTISTVQAEDLAVYFCQQDYSSPFTFGSGTKLEMK

>  <gMFI>
27000

$$$$
>  <binder>
SC91.187 (antibody, V domains shown) VH: QVQLQQPGPEFVKPGASVKLSCKASGYTFTSYWVQWVKQRPGQGLEWIGEIDPSDNYTLYNQNFKGKATLTVDTSSSTAYMQLSSLTSEDSAVYYCARFGFYVDYWGQGTTLTVSS VL: DVVMTQTPLSLPVSLGEQASISCRSSQSLVHSTGNTYLHWYLQKPGQSPKLLIYKVSNRFSGVPDRFSGSGSGTDFTLKISRVEAEDLGVYFCSQSTHVPFTFGSGTKLEIK

>  <gMFI>
25900

$$$$
>  <binder>
SC91.149 (antibody, V domains shown) VH: QVQLLQPGAELVKPGSSVKVSCKASGYTFTNYWMQWVKQRPGQGLEWIGEIDPSDTYTLYNQKFKGKATLTVDTSSSTAYMQLSSLTSEDSAVYYCARFGYYVDYWGQGTTLTVSS VL: DVVMTQTPLSLPVSLGDQASISCRSSQSLVHSTGNTYFHWYLQKPGQSPELLIYKVSNRFSGVPDRFRGSGSGTDFTLKISRVEAEDLGVYFCSQSTHVPFTFGSGTKLEIK

>  <gMFI>
27000

$$$$
>  <binder>
SC91.111 (antibody, V domains shown, copies: 2 + 2) VH: QIQLVQSGPELKKPGETVKISCKASGYTLTTYGMNWVKQAPGKGLKWMGWINTYSGVPAYADDFKGRFAFSLETSASTAYLQINNFKNEDTATYFCARSELRNWYFDVWGTGTTVTVSS VL: SFVMTQTPKFLLVSAGDRVTITCKASQNMGHNVAWYQQKPGQSPKLLIYYASNRYTGVPDRFTGSGYGTDFTFTISTVQAEDLAVYFCQQDYSSPFTFGSGTKLEIK

>  <gMFI>
25200

$$$$
>  <binder>
SC91.155 (antibody, V domains shown) VH: QIQLVQSGPELKKPGETVKISCKASGYTFTTYGMNWVKQAPGKGLKWMGWINSYSGVPAYADDFKGRFAFSLETFASTAYLQINNLRDEDTATYFCARSELRNWYFDVWGTGTTVTVSS VL: SFVMTQTPKFLLVSAGDRVTITCKASQNLGNDVAWYQQKPGQSPRLLIYFASNRYTGVPDRFTGSGYGTDFTFTISTVQAEDLAVYFCQQDYSSPFTFGSGTKLEIK

>  <gMFI>
25300

$$$$
>  <binder>
SC91.129 (antibody, V domains shown, copies: 2 + 2) VH: QVQLQQPGAELVKPGASVKLSCKASGYTFTNYWMQWVKQRPGQGLEWIGEIDPSDRYTLYNQKFKDKATLTVDTSSSTAYMQLSSLTSEDSAVYYCARFGYYVDYWGQGTTLTVSS VL: DAVMTQSPLSLPVSLGDQASISCRSSQSLVHSTGNTYLHWYLQKPGQSPKLLIYKVSNRFSGVPDRFSGSGSGTDFTLKISRVEAEDLGVYFCSQTTHVPFTFGSGTKLEIK

>  <gMFI>
26900

$$$$
